assay.system: human FXR (NR1H4) (Homo sapiens, UniProt Q96RI1)
Construct: host or cells: CHO (Chinese hamster ovary) cells
protocol.summary: Human FXR (NR1H4) reporter assay (Gal4 promoter driven transactivation, luciferase)
Assay type: cell-based
test.parameters: normalized to CDCA set as 100%
property.name: Efficacy (%)
I'd appreciate it if you wrote the number followed by its unit.

I have this molecule here, CC[C@H]1[C@@H](O)[C@@H]2[C@H](CC[C@]3(C)[C@@H]([C@H](C)CCCCc4nn[nH]n4)CC[C@@H]23)[C@@]2(C)CC[C@@H](O)C[C@@H]12 , and I need its recorded Efficacy (%). 234%

I have this molecule here, CC[C@H]1[C@@H](O)[C@@H]2[C@H](CC[C@]3(C)[C@@H]([C@H](C)CCCc4nnn[nH]4)CC[C@@H]23)[C@@]2(C)CC[C@@H](O)C[C@@H]12 , and I need its recorded Efficacy (%). 354%

I have this molecule here, CC[C@H]1[C@@H](O)[C@@H]2[C@H](CC[C@]3(C)[C@@H]([C@H](C)CCCCCc4nn[nH]n4)CC[C@@H]23)[C@@]2(C)CC[C@@H](O)C[C@@H]12 , and I need its recorded Efficacy (%). 191%

* * *

assay.system: human FXR (NR1H4) (Homo sapiens, UniProt Q96RI1)
Construct: host or cells: CHO (Chinese hamster ovary) cells
Sequence (Q96RI1 1-486): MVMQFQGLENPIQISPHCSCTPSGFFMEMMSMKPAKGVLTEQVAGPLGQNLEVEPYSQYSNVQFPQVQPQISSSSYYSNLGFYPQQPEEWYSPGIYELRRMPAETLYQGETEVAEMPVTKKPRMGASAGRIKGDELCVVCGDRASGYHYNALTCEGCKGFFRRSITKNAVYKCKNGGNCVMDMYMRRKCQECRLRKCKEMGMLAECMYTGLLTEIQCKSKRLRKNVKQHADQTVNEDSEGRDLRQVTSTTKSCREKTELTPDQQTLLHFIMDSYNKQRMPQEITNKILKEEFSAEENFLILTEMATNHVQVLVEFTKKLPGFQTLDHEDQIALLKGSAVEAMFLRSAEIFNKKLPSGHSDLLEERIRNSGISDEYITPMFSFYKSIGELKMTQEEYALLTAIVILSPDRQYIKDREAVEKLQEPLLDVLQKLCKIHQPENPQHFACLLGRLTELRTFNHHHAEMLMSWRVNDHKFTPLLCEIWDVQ
protocol.summary: Human FXR (NR1H4) reporter assay (Gal4 promoter driven transactivation, luciferase)
Format: cell-based
test.parameters: normalized to CDCA set as 100%
property.name: Efficacy (%)
The figure you give is taken to be in %; do not add the unit.

I have this compound here, CC[C@H]1[C@@H](O)[C@@H]2[C@H](CC[C@]3(C)[C@@H]([C@H](C)CCc4nnn[nH]4)CC[C@@H]23)[C@@]2(C)CC[C@@H](O)C[C@@H]12 , and I need its recorded Efficacy (%). 397

I have this compound here, CC[C@H]1[C@@H](O)[C@@H]2[C@H](CC[C@]3(C)[C@@H]([C@H](C)CCC(=O)Nc4nnn[nH]4)CC[C@@H]23)[C@@]2(C)CC[C@@H](O)C[C@@H]12 , and I need its recorded Efficacy (%). 105

I have this compound here, CC[C@H]1[C@@H](O)[C@@H]2[C@H](CC[C@]3(C)[C@@H]([C@H](C)Cc4nnn[nH]4)CC[C@@H]23)[C@@]2(C)CC[C@@H](O)C[C@@H]12 , and I need its recorded Efficacy (%). 192

* * *

assay.system: UniProt:Q96RI1
Sequence (Q96RI1 1-486): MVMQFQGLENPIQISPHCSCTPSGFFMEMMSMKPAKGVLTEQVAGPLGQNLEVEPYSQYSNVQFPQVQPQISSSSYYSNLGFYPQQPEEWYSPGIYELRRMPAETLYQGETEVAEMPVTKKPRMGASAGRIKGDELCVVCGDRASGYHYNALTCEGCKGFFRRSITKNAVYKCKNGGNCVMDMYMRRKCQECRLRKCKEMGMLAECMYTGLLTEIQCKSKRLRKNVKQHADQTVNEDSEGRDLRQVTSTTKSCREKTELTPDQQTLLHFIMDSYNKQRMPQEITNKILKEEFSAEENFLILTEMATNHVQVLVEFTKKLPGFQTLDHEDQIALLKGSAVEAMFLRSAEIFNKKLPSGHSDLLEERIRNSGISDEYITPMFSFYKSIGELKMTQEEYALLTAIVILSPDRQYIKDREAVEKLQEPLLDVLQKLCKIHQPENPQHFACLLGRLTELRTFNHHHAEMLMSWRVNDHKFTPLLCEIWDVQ
protocol.summary: Human FXR (NR1H4) reporter assay (Gal4 promoter driven transactivation, luciferase)
pEC50: −log10 of the molar value.
property.name: pEC50

I have this molecule here, CC[C@H]1[C@@H](O)[C@@H]2[C@H](CC[C@]3(C)[C@@H]([C@H](C)CCCCc4nn[nH]n4)CC[C@@H]23)[C@@]2(C)CC[C@@H](O)C[C@@H]12 [Example 4] , and I need its recorded pEC50. 6.00 to 7.00

I have this molecule here, CC[C@H]1[C@@H](O)[C@@H]2[C@H](CC[C@]3(C)[C@@H]([C@H](C)CCC(=O)Nc4nnn[nH]4)CC[C@@H]23)[C@@]2(C)CC[C@@H](O)C[C@@H]12 [Example 6] , and I need its recorded pEC50. 5.00 to 6.00

I have this molecule here, CC[C@H]1[C@@H](O)[C@@H]2[C@H](CC[C@]3(C)[C@@H]([C@H](C)CCCc4nnn[nH]4)CC[C@@H]23)[C@@]2(C)CC[C@@H](O)C[C@@H]12 [Example 2] , and I need its recorded pEC50. 6.00 to 7.00

I have this molecule here, CC[C@H]1[C@@H](O)[C@@H]2[C@H](CC[C@]3(C)[C@@H]([C@H](C)CCc4nnn[nH]4)CC[C@@H]23)[C@@]2(C)CC[C@@H](O)C[C@@H]12 [Example 1] , and I need its recorded pEC50. 5.00 to 6.00

I have this molecule here, CC[C@H]1[C@@H](O)[C@@H]2[C@H](CC[C@]3(C)[C@@H]([C@H](C)Cc4nnn[nH]4)CC[C@@H]23)[C@@]2(C)CC[C@@H](O)C[C@@H]12 [Example 3] , and I need its recorded pEC50. 5.00 to 6.00

I have this molecule here, CC[C@H]1[C@@H](O)[C@@H]2[C@H](CC[C@]3(C)[C@@H]([C@H](C)CCCCCc4nn[nH]n4)CC[C@@H]23)[C@@]2(C)CC[C@@H](O)C[C@@H]12 [Example 5] , and I need its recorded pEC50. 6.00 to 7.00
